// provenance: PubChem BioAssay

tested on: XIP peptide (Xip251-270); assay: small-molecule binders of XIP peptide, primary screen, biochemical, small-molecule microarray, fluorescence 635/667 nm, 0.5 µg/mL protein (AID 1183); conditions: small-molecule microarray binding, fluorescence 635 nm; higher = more signal
VALUE_TYPE: composite z-score
Lab note: write the figure by itself, no unit.

QUERY: // returns reported composite z-score for input `CO[C@]12C=C(Br)[C@@H](C[C@@H]1c1ccccc1)[C@@]1(CO1)C2=O`
RESULT: 0.521

QUERY: // returns reported composite z-score for input C=CC[C@@]1(C(=O)NCC(O)CO)N=C(c2ccc(OCCCO)cc2)O[C@@H]1c1ccccc1CN=[N+]=[N-] (stereo partly drawn)
RESULT: -0.105

QUERY: // returns reported composite z-score for input `[N-]=[N+]=NCc1ccccc1C[C@@]1(C(=O)O)N=C(c2ccc(OCCCO)cc2)O[C@@H]1c1ccccc1N=[N+]=[N-]`
RESULT: 0.908

====

test system: Wnt5a (protein binding on small-molecule microarray); experiment: Wnt5a binders on small-molecule microarray, primary screen, biophysical, 635/667 nm fluorescence (AID 1142); conditions: 635 nm fluorescence, higher = more signal;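 further: fluorescence read at 667 nm with signal to noise per printed feature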
VALUE_TYPE: composite z-score

QUERY: Recorded composite z-score for `CC/C=C/C(=O)N(C[C@@H]1CCCO1)[C@@H]1CC(C(=O)NCCO)=C[C@H](Oc2c(I)cc(CO)cc2OC)[C@H]1O` with Wnt5a (protein binding on small-molecule microarray), please?
RESULT: -0.0308

QUERY: Recorded composite z-score for `COc1ccc(-c2ccccc2[C@@H]2N[C@H](C(=O)O)CC[C@H]2C)cc1` with Wnt5a (protein binding on small-molecule microarray), please?
RESULT: -0.053

QUERY: Recorded composite z-score for `Cc1ccc(S[C@]2(C(=O)O)CC(=O)N(Cc3cc(C(F)(F)F)cc(C(F)(F)F)c3)[C@@H]2c2ccc(CO)cc2I)cc1` with Wnt5a (protein binding on small-molecule microarray), please?
RESULT: 0.176

QUERY: Recorded composite z-score for `CC(=O)NCCCC[C@@H]1NC(=O)[C@@H]2C[C@H](C(=O)NCc3ccc(F)cc3)[C@H](c3cccc(OCCO)c3)N2C1=O` with Wnt5a (protein binding on small-molecule microarray), please?
RESULT: 0.0719

====

assay: S. cerevisiae RM11-1a growth modifiers, primary screen, strain RM11-1a, OD600, basal, 24 h (AID 1177); settings: OD600, 24 h, higher = more signal, called active from +8 up or from −8 down;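 further: cultures grown under basal conditions with no added stressor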
Classify as follows. Reported z-score greater than or equal to -0.4: Criterion met. Reported z-score below: Criterion not met.

QUERY: Does z-score meet or surpass -0.4 for `Cc1ccc(S[C@]2(C(=O)NC(C)C)CC(=O)N(Cc3cc(C(F)(F)F)cc(C(F)(F)F)c3)[C@@H]2c2ccc(CO)cc2I)cc1` ?
RESULT: Criterion not met

QUERY: Does z-score meet or surpass -0.4 for `O=C(NCc1ccccc1)[C@@]1(CCS(=O)(=O)c2ccccc2)COC(c2ccc(OCCCO)cc2)=N1` ?
RESULT: Criterion met

QUERY: Does z-score meet or surpass -0.4 for `COCCCNC(=O)[C@@]1(c2ccc([N+](=O)[O-])cc2)CC(=O)N(C2CCCCC2)[C@@H]1c1ccc(CO)cc1` ?
RESULT: Criterion not met

QUERY: Does z-score meet or surpass -0.4 for `O=C1O[C@@H](c2ccccc2)[C@@H](c2ccccc2)N2[C@@H](c3ccccc3OCCO)[C@]3(C(=O)Nc4ccc(C#CC5=CCCCC5)cc43)[C@@H](C(=O)O)[C@H]12` ?
RESULT: Criterion met

QUERY: Does z-score meet or surpass -0.4 for C=CCC(OC(C)=O)[C@@H]1[C@@H](N(Cc2ccc(-c3ccccc3)cc2)C(=O)c2ccc(C)cc2)c2cc(OCCCO)ccc2N1C(=O)c1ccc(-c2ccccc2)cc1 (stereo not given in full) ?
RESULT: Criterion not met

QUERY: Does z-score meet or surpass -0.4 for O=C1NC(=O)C2C1C=CC(C(O)C=Cc1ccc([N+](=O)[O-])cc1)N2Nc1ccccn1 (stereo not given) ?
RESULT: Criterion met

QUERY: Does z-score meet or surpass -0.4 for `COc1ccc([Si](C)(C)[C@@H]2[C@@H](CCO)O[C@]3(C(=O)N(Cc4ccc(NC(=O)[C@H](C)O)cc4)c4ccccc43)[C@H]2C)cc1` ?
RESULT: Criterion met

QUERY: Does z-score meet or surpass -0.4 for `CC(C)[Si]1(C(C)C)OCc2cc(C3CC3)nc(-c3ccccc3)c21` ?
RESULT: Criterion not met

QUERY: Does z-score meet or surpass -0.4 for `COC(=O)C[C@H]1O[C@]2(C(=O)N(C)c3ccccc32)[C@@H](C)[C@@H]1[Si](C)(C)c1ccc(OC)cc1` ?
RESULT: Criterion not met

QUERY: Does z-score meet or surpass -0.4 for `Cc1ccc(N2C(=O)c3ccccc3[C@@H](C(=O)NCc3ccccc3)[C@@H]2c2ccc(CO)cc2)nc1` ?
RESULT: Criterion met

QUERY: Does z-score meet or surpass -0.4 for `CCCC=C(CCC)[C@@H](NS(=O)(=O)c1ccc(-c2ccccc2)cc1)c1ccc(C(=O)OC)cc1` ?
RESULT: Criterion met

QUERY: Does z-score meet or surpass -0.4 for `C=CCC1=C[C@H]2[C@H]([C@@H]3C=C[C@]2(CC=C)C(=O)[C@]32CO2)[C@@]2(CO2)C1=O` ?
RESULT: Criterion not met

QUERY: Does z-score meet or surpass -0.4 for `COC(=O)[C@@]1(Cc2ccc(OC)cc2)[C@H]2c3cc(C(=O)N(C)C)n(Cc4ccc(C)c(F)c4F)c3C[C@H]2CN1C(=O)c1ccccc1` ?
RESULT: Criterion met

QUERY: Does z-score meet or surpass -0.4 for `CN(C)CCCC[C@@H]1NC(=O)[C@@H]2C[C@H](C(=O)O)[C@H](c3ccc(O)cc3)N2C1=O` ?
RESULT: Criterion not met

QUERY: Does z-score meet or surpass -0.4 for `CCOC(=O)C1=CC[C@@H](c2ccc(-c3ccc(OCc4ccccc4)cc3)c(OC)c2)N(S(=O)(=O)c2ccc(C)cc2)[C@H]1c1ccccc1` ?
RESULT: Criterion met

QUERY: Does z-score meet or surpass -0.4 for `CCC(=O)[C@]12O[C@@]3([C@@H]4C(=O)OCC[C@@H]41)N(Cc1ccccc1)C(C)=C(C(=O)OC)[C@@H](c1ccccc1)N3C2=O` ?
RESULT: Criterion not met

QUERY: Does z-score meet or surpass -0.4 for `CC(C)(C)OC(=O)CC[C@]1(C(=O)N2CCCCC2)N=C(c2ccc(OCCCO)cc2)O[C@H]1c1ccccc1` ?
RESULT: Criterion met

QUERY: Does z-score meet or surpass -0.4 for `CC(=O)NCCCC[C@@H]1NC(=O)[C@@H]2C[C@H](C(=O)NCc3ccc(F)cc3)[C@H](c3cccc(OCCO)c3)N2C1=O` ?
RESULT: Criterion met

QUERY: Does z-score meet or surpass -0.4 for C=CCC(OC(C)=O)[C@@H]1[C@@H](N(Cc2cc3ccccc3o2)C(=O)Cc2ccc(F)cc2)c2cc(OCCCO)ccc2N1C(=O)c1ccc(-c2ccccc2)cc1 (stereo not given in full) ?
RESULT: Criterion met

QUERY: Does z-score meet or surpass -0.4 for `COCCOC(=O)N1C(=O)[C@@]2(c3cc(C#CCNC(N)=O)ccc31)[C@H](c1ccccc1OCCO)N1[C@H](c3ccccc3)[C@H](c3ccccc3)OC(=O)[C@H]1[C@@H]2C(=O)NC[C@H](O)c1ccccc1` ?
RESULT: Criterion met

QUERY: Does z-score meet or surpass -0.4 for `COCCOC(=O)N1C(=O)[C@@]2(c3cc(C#CCC(C(=O)OC)C(=O)OC)ccc31)[C@H](c1ccccc1OCCO)N1[C@H](c3ccccc3)[C@H](c3ccccc3)OC(=O)[C@H]1[C@@H]2C(=O)N1CCCCCCC1` ?
RESULT: Criterion met

QUERY: Does z-score meet or surpass -0.4 for `COc1cc2c(cc1OC)CN(C(=O)[C@H]1[C@@H]3C(=O)O[C@@H](c4ccccc4)[C@@H](c4ccccc4)N3[C@@H](c3ccc(O)cc3)[C@]13C(=O)Nc1ccc(C#CC4(O)CCCCCC4)cc13)CC2` ?
RESULT: Criterion met

QUERY: Does z-score meet or surpass -0.4 for `CCOC(=O)[C@H]1C/C=C/C[C@H](C(=O)OCC)C(=O)O[C@H]2[C@@H](OC)O[C@H](CO)[C@@H](OC(=O)Nc3ccc(Br)cc3)[C@@H]2OC1=O` ?
RESULT: Criterion met

QUERY: Does z-score meet or surpass -0.4 for `C[N+](C)(C)CCCC[C@@H]1NC(=O)[C@H]2C[C@@H](C(=O)NCc3ccc(F)cc3)[C@@H](c3cccc(OCCO)c3)N2C1=O` ?
RESULT: Criterion not met
